System: Community 9
Assay: relative growth (AUC of 72 h growth curve relative to DMSO control, dAUC) (ratio); higher = more growth (less inhibition), active = hit call of the paper
Conditions: 20 µM
relative growth by entry:
Measured parameter: relative growth

Compound | Measured parameter | Endpoint result
CO/C=C(/C(=O)OC)c1ccccc1COc1cccc(C(F)(F)F)n1 | relative growth | 0.987
N#Cc1c[nH]cc1-c1cccc2c1OC(F)(F)O2 | relative growth | 0.914
CSc1nnc(C(C)(C)C)c(=O)n1N | relative growth | 1.05
OC(Cn1cncn1)(c1ccc(F)cc1)c1ccccc1F (configuration not stated) | relative growth | 1.08
N#Cc1nn(-c2c(Cl)cc(C(F)(F)F)cc2Cl)c(N)c1[S+]([O-])C(F)(F)F (configuration not stated) | relative growth | 1.04
Cc1ccc(/N=C/N(C)/C=N/c2ccc(C)cc2C)c(C)c1 | relative growth | 0.961
CNC(=O)ON=C(C)SC | relative growth | 1.04
CCOC(=O)OC1=C(c2cc(C)ccc2C)C(=O)N[C@]12CC[C@@H](OC)CC2 | relative growth | 1.03
CCNc1nc(Cl)nc(NC(C)C)n1 | relative growth | 1
Clc1ccc(C(c2ccc(Cl)cc2)C(Cl)(Cl)Cl)cc1 | relative growth | 1.03
Cc1cc(C(C#N)c2ccc(Cl)cc2)c(Cl)cc1NC(=O)c1cc(I)cc(I)c1O (configuration not stated) | relative growth | 0.394
O=C(O)COc1ccc(Cl)cc1Cl | relative growth | 1.03
CS(=O)(=O)c1ccc(C(=O)C2C(=O)CCCC2=O)c([N+](=O)[O-])c1 | relative growth | 1.04
COP(=S)(OC)Oc1ccc(SC)c(C)c1 | relative growth | 1.02
COC(=O)NC(=S)Nc1ccccc1NC(=S)NC(=O)OC | relative growth | 1.05
N#Cc1sc2c(=O)c3ccccc3c(=O)c=2sc1C#N | relative growth | 1.09
CCCCOC(=O)[C@H](C)Oc1ccc(Oc2ccc(C#N)cc2F)cc1 | relative growth | 1.06
CCOc1ccc(C(C)(C)COCc2cccc(Oc3ccccc3)c2)cc1 | relative growth | 0.965
CCc1cccc(C)c1N(C(=O)CCl)[C@@H](C)COC | relative growth | 0.948
CSc1nc(NC(C)C)nc(NC(C)C)n1 | relative growth | 0.97
CC(Oc1ccc(Oc2ncc(C(F)(F)F)cc2Cl)cc1)C(=O)O (configuration not stated) | relative growth | 1.01
CNC(=O)CSP(=S)(OC)OC | relative growth | 0.921
CC1(C)CON(Cc2ccccc2Cl)C1=O | relative growth | 1.02
Cc1cc(C2CC2)nc(Nc2ccccc2)n1 | relative growth | 0.939
COc1cccc(C(=O)NN(C(=O)c2cc(C)cc(C)c2)C(C)(C)C)c1C | relative growth | 0.893
CCCN(CCOc1c(Cl)cc(Cl)cc1Cl)C(=O)n1ccnc1 | relative growth | 0.998
CCNC(=O)NC(=O)/C(C#N)=N/OC | relative growth | 0.993
Nc1c([N+](=O)[O-])ccc(Oc2ccccc2)c1Cl | relative growth | 0.907
COCC(C)N(C(=O)CCl)c1c(C)csc1C (configuration not stated) | relative growth | 1.01
C[N+](C)(C)CCCl | relative growth | 1.01
Oc1ccccc1-c1ccccc1 | relative growth | 0.974
O=C(Nc1ccc(F)cc1F)c1cccnc1Oc1cccc(C(F)(F)F)c1 | relative growth | 1.11
